biological target: Rat NHE3 (Rattus norvegicus, UniProt P26433); construct: expressed in transfected cells; host or cells: Opossum kidney (OK) cells (ATCC), electroporation; experiment: Cell-based NHE3 activity under prompt conditions (OK cells, BCECF pH recovery), rat NHE3; conditions: prompt conditions
Sequence (P26433 29-831): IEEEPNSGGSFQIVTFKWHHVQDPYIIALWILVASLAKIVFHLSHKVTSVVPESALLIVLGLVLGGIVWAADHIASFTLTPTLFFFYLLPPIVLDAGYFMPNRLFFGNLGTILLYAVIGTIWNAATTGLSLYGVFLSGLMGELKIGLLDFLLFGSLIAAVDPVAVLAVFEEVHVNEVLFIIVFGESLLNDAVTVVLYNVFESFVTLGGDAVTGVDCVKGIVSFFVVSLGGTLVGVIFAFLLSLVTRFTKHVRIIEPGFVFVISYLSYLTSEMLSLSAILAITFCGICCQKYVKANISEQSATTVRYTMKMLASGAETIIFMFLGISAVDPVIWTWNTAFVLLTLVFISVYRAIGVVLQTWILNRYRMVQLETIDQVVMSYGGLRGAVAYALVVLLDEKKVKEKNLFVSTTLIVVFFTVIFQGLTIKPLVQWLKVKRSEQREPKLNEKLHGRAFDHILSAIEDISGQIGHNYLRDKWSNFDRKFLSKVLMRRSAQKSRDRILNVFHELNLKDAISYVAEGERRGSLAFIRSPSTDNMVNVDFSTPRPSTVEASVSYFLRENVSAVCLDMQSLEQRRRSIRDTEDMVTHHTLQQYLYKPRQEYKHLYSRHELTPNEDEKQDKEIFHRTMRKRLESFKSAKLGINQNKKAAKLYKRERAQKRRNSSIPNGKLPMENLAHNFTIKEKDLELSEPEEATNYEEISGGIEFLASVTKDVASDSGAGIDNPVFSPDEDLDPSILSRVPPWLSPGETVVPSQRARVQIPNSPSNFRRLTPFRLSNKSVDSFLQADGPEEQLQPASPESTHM
assay.readout: Prompt Rat NHE3 pIC50

INSERT INTO results (compound, assay_readout, quantitative_readout) VALUES
  ('CN1CCN(C(=O)NC(CCC(=O)NCCOCCOCCNS(=O)(=O)c2cccc(C3CN(C)Cc4c(Cl)cc(Cl)cc43)c2)(CCC(=O)NCCOCCOCCNS(=O)(=O)c2cccc([C@@H]3CN(C)Cc4c(Cl)cc(Cl)cc43)c2)CCC(=O)NCCOCCOCCNS(=O)(=O)c2cccc([C@@H]3CN(C)Cc4c(Cl)cc(Cl)cc43)c2)CC1 (stereo in doubt)', 'Prompt Rat NHE3 pIC50', 6.90),
  ('CN1Cc2c(Cl)cc(Cl)cc2[C@H](c2cccc(S(=O)(=O)NCCOCCOCCOCCNC(=O)CN3CCN(CC(=O)NCCOCCOCCOCCNS(=O)(=O)c4cccc([C@@H]5CN(C)Cc6c(Cl)cc(Cl)cc65)c4)CCN(CC(=O)NCCOCCOCCOCCNS(=O)(=O)c4cccc([C@@H]5CN(C)Cc6c(Cl)cc(Cl)cc65)c4)CCN(CC(=O)NCCOCCOCCOCCNS(=O)(=O)c4cccc([C@@H]5CN(C)Cc6c(Cl)cc(Cl)cc65)c4)CC3)c2)C1', 'Prompt Rat NHE3 pIC50', 6.30),
  ('NC(N)=Nc1nc(-c2cccc(N3CCN(CCOCCOCCNC(=O)NCCOCCOCCNC(=O)NCCCCNC(=O)NCCOCCOCCNC(=O)NCCOCCOCCN4CCN(c5cccc(-c6nc(N=C(N)N)nc7ccc(Cl)cc67)c5)CC4)CC3)c2)c2cc(Cl)ccc2n1', 'Prompt Rat NHE3 pIC50', 7.60),
  ('CN1Cc2c(Cl)cc(Cl)cc2[C@H](c2cccc(S(=O)(=O)NCCOCCOCCNC(=O)CCC(CCC(=O)NCCOCCOCCNS(=O)(=O)c3cccc([C@@H]4CN(C)Cc5c(Cl)cc(Cl)cc54)c3)(CCC(=O)NCCOCCOCCNS(=O)(=O)c3cccc([C@@H]4CN(C)Cc5c(Cl)cc(Cl)cc54)c3)NC(=O)COCC(=O)O)c2)C1', 'Prompt Rat NHE3 pIC50', 7.60),
  ('CN(C)CC(=O)NC(CCC(=O)NCCOCCOCCNS(=O)(=O)c1cccc([C@@H]2CN(C)Cc3c(Cl)cc(Cl)cc32)c1)(CCC(=O)NCCOCCOCCNS(=O)(=O)c1cccc([C@@H]2CN(C)Cc3c(Cl)cc(Cl)cc32)c1)CCC(=O)NCCOCCOCCNS(=O)(=O)c1cccc([C@@H]2CN(C)Cc3c(Cl)cc(Cl)cc32)c1', 'Prompt Rat NHE3 pIC50', 7.10),
  ('CN(C)[C@H]1Cc2c(Cl)cc(Cl)cc2[C@@H]1Oc1ccc(S(=O)(=O)NCCOCCOCCNC(=O)COCC(=O)NCCOCCOCCNS(=O)(=O)c2ccc(O[C@H]3c4cc(Cl)cc(Cl)c4C[C@@H]3N(C)C)cc2)cc1', 'Prompt Rat NHE3 pIC50', 8.10),
  ('O=C(CCOCCOCCOCCOCCOCCC(=O)NCCOCCOCCOCCNS(=O)(=O)c1ccc(OC2c3ccccc3CC2N2CCCCC2)cc1)NCCOCCOCCOCCNS(=O)(=O)c1ccc(OC2c3ccccc3CC2N2CCCCC2)cc1 (centres unmarked)', 'Prompt Rat NHE3 pIC50', 7.45);

* * *

target: Human NHE3 (Homo sapiens); construct: expressed in transfected cells; host or cells: Opossum kidney (OK) cells (ATCC), electroporation; test: Cell-based NHE3 activity under prompt conditions (OK cells, BCECF pH recovery), human NHE3; settings: prompt conditions
Sequence (P48764 26-834): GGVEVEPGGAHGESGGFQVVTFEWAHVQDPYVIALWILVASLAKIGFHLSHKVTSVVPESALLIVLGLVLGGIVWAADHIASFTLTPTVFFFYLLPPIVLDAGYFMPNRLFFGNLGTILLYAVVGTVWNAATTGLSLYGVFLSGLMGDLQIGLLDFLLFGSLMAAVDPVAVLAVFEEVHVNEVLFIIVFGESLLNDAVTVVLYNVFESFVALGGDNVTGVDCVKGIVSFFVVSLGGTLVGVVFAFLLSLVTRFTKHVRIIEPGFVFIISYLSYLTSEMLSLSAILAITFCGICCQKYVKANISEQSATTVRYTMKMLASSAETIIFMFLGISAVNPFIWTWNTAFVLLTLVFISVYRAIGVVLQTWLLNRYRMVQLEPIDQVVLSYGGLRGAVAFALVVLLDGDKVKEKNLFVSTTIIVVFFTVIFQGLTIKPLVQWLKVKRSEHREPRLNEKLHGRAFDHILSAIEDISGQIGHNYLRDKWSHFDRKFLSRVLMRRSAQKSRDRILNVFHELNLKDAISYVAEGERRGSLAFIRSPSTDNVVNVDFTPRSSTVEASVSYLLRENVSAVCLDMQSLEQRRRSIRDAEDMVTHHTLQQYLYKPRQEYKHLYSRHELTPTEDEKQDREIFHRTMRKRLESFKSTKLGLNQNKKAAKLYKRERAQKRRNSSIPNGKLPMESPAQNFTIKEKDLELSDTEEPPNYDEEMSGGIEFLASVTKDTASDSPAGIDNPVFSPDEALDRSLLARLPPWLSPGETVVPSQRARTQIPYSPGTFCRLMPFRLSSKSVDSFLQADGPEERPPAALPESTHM
assay.readout: Prompt Human NHE3 pIC50

INSERT INTO assay_data (compound, quantitative_readout) VALUES
  ('N=C(N)Nc1nc(-c2cccc(N3CCN(CCOCCOCCOCCNC(=O)NCCOCCOCCNC(=O)CN(CCN(CC(=O)O)CC(=O)NCCOCCOCCNC(=O)NCCOCCOCCOCCN4CCN(c5cccc(-c6nc(NC(=N)N)nc7ccc(Cl)cc67)c5)CC4)CC(=O)O)CC3)c2)c2cc(Cl)ccc2n1', 8.20),
  ('CC(O)C(CCC(=O)NCCOCCOCCNS(=O)(=O)c1cccc([C@@H]2CN(C)Cc3c(Cl)cc(Cl)cc32)c1)(CCC(=O)NCCOCCOCCNS(=O)(=O)c1cccc([C@@H]2CN(C)Cc3c(Cl)cc(Cl)cc32)c1)CCC(=O)NCCOCCOCCNS(=O)(=O)c1cccc([C@@H]2CN(C)Cc3c(Cl)cc(Cl)cc32)c1 (stereo partly drawn)', 8.10),
  ('COCCNS(=O)(=O)c1cccc(C2CN(C)Cc3c(Cl)cc(Cl)cc32)c1 (stereo not drawn)', 6.50),
  ('C/C(=C\c1cc(F)c(Oc2ccc(S(=O)(=O)NCCOCCOCCOCCNC(=O)[C@H](O)[C@@H](O)C(=O)NCCOCCOCCOCCNS(=O)(=O)c3ccc(Oc4c(F)cc(/C=C(\C)C(=O)N=C(N)N)cc4F)cc3)cc2)c(F)c1)C(=O)N=C(N)N', 7.85),
  ('CN1Cc2c(Cl)cc(Cl)cc2[C@H](c2cccc(S(=O)(=O)NCCOCCOCCNC(=O)CCC(CCC(=O)NCCOCCOCCNS(=O)(=O)c3cccc([C@@H]4CN(C)Cc5c(Cl)cc(Cl)cc54)c3)(CCC(=O)NCCOCCOCCNS(=O)(=O)c3cccc([C@@H]4CN(C)Cc5c(Cl)cc(Cl)cc54)c3)NC(=O)COCC(=O)O)c2)C1', 7.80),
  ('CN1Cc2c(Cl)cc(Cl)cc2[C@H](c2cccc(S(=O)(=O)NCCOCCOCCNC(=O)CCC(CCC(=O)NCCOCCOCCNS(=O)(=O)c3cccc([C@@H]4CN(C)Cc5c(Cl)cc(Cl)cc54)c3)(CCC(=O)NCCOCCOCCNS(=O)(=O)c3cccc([C@@H]4CN(C)Cc5c(Cl)cc(Cl)cc54)c3)NC(=O)N(C)C)c2)C1', 6.90),
  ('CN1Cc2c(Cl)cc(Cl)cc2[C@H](c2cccc(S(=O)(=O)NCCOCCOCCNC(=O)NCCCC(CCCNC(=O)NCCOCCOCCNS(=O)(=O)c3cccc([C@@H]4CN(C)Cc5c(Cl)cc(Cl)cc54)c3)(CCCNC(=O)NCCOCCOCCNS(=O)(=O)c3cccc([C@@H]4CN(C)Cc5c(Cl)cc(Cl)cc54)c3)NC(=O)COCC(=O)O)c2)C1', 7.60);

* * *

test system: phosphorus and calcium levels in the urine of rats; test: Urinary excretion of phosphate and calcium in rats (16 h overnight urine); assay type: in vivo, rat; conditions: rats, oral gavage, dose 10 mg/kg, 16 h post-dose
assay.readout: Urine P % of control (%)
Give the value, in units of %, as a plain number.

Below: 6 molecules and their reported Urine P % of control.
INSERT INTO results (molecule, quantitative_readout) VALUES
  ('CCCCCCCCOCCOCCOCCOCCOCCOC(=O)NCCOCCOCCOCCNS(=O)(=O)c1cccc([C@@H]2CN(C)Cc3c(Cl)cc(Cl)cc32)c1', 92),
  ('O=C(NCCCCNC(=O)NCCOCCOCCNS(=O)(=O)c1ccc(O[C@H]2c3cc(Cl)cc(Cl)c3C[C@@H]2N2CCCCC2)cc1)NCCOCCOCCNS(=O)(=O)c1ccc(O[C@H]2c3cc(Cl)cc(Cl)c3C[C@@H]2N2CCCCC2)cc1', 97),
  ('N=C(N)Nc1nc(-c2ccc(N3CCN(CCOCCOCCOCCNC(=O)NCCOCCOCCNC(=O)NCCOCCOCCOCCN4CCN(c5ccc(-c6nc(NC(=N)N)nc7ccc(Cl)cc67)cc5)CC4)CC3)cc2)c2cc(Cl)ccc2n1', 81),
  ('O=C(O)CN(CCN(CC(=O)O)CC(=O)NCCOCCOCCNS(=O)(=O)c1ccc(O[C@H]2c3ccccc3C[C@@H]2N2CCCCC2)cc1)CC(=O)NCCOCCOCCNS(=O)(=O)c1ccc(O[C@H]2c3ccccc3C[C@@H]2N2CCCCC2)cc1 [compound 65]', 85),
  ('CCCCCCCCOc1ccc(CNCCOCCOCCOCCNS(=O)(=O)c2cccc([C@@H]3CN(C)Cc4c(Cl)cc(Cl)cc43)c2)cc1', 69),
  ('O=C(NCCCCNC(=O)NCCOCCOCCNS(=O)(=O)c1ccc(O[C@H]2c3ccccc3C[C@@H]2N2CCCCC2)cc1)NCCOCCOCCNS(=O)(=O)c1ccc(O[C@H]2c3ccccc3C[C@@H]2N2CCCCC2)cc1 [compound 66]', 30);

// below: Urine P % of control requested for another molecule
Recorded result, `C/C(=C\c1cc(F)c(Oc2ccc(S(=O)(=O)NCCOCCOCCOCCNC(=O)NCCCCNC(=O)NCCOCCOCCOCCNS(=O)(=O)c3ccc(Oc4c(F)cc(/C=C(\C)C(=O)N=C(N)N)cc4F)cc3)cc2)c(F)c1)C(=O)N=C(N)N` , Urine P % of control: 102
